# melting point per entry

Previously resolved entries follow.
> print(dat)
                                   molecule        assay.value
1  Cl.O=C(CNCc1cccc2ccccc12)N(c1ccccc1)c1ccccc1      233 to 235 °C
2    Cl.O=C(CNCc1ccccc1)N(c1ccccc1)c1ccccc1      234 to 237 °C
3  Cl.O=C(CNC(c1ccccc1)c1ccccc1)NCCC(c1ccccc1)c1ccccc1  177.5 to 178.1 °C
4  Cl.O=C(CNCCC(c1ccccc1)c1ccccc1)N(c1ccccc1)c1ccccc1      227 to 230 °C
5  CN(C)c1ccc(CNC(C(=O)NCc2ccccc2)c2ccccc2)cc1.O=C(O)/C=C/C(=O)O (racemic)      159 to 161 °C

Q. Would you kindly share the measured melting point for "Cl.O=C(CNC(c1ccccc1)c1ccccc1)N1CCCc2ccccc21" ?
A. 191 to 194 °C

Q. Would you kindly share the measured melting point for "Cl.O=C(CNCC(c1ccccc1)c1ccccc1)N(c1ccccc1)c1ccccc1" ?
A. 232 to 234 °C

Q. Would you kindly share the measured melting point for "CC(C)N(C(=O)CNC(c1ccccc1)c1ccccc1)c1ccccc1.Cl" ?
A. 241 to 243 °C

Q. Would you kindly share the measured melting point for CC(NC1Cc2ccccc2C1)C(=O)N(c1ccccc1)c1ccccc1.Cl (racemic) ?
A. 208 to 210 °C

====

# melting point per entry

Previously resolved entries follow.
> print(dat)
                                   compound   assay.metric    assay.value
1  CC(CN(C)C)N1c2ccccc2CCc2ccccc21.Cl (racemic)  melting point  172 to 173 °C
2  Cl.O=C(CNC(c1ccccc1)c1ccccc1)Nc1ccccc1-c1ccccc1  melting point  151 to 158 °C
3  Cl.O=C(CNC1CCCc2ccccc21)N1c2ccccc2C=Cc2ccccc21 (stereo not shown)  melting point  245 to 246 °C
4   CN(C(=O)CNCc1ccc(Cl)c(Cl)c1)c1ccccc1.Cl  melting point  221 to 224 °C
5  Cl.O=C(CNC(c1ccccc1)c1ccccc1)N(Cc1ccccc1)c1ccccc1  melting point  181 to 182 °C

Q. Would you kindly share the measured melting point for "Cl.O=C(CNC(c1ccccc1)c1ccccc1)Nc1cccc2ccccc12" ?
A. 132 to 134 °C

Q. Would you kindly share the measured melting point for "Cl.O=C(CNCC(c1ccccc1)c1ccccc1)N1c2ccccc2Oc2ccccc21" ?
A. 215 to 216 °C

Q. Would you kindly share the measured melting point for CS(=O)(=O)O.CS(=O)(=O)O.Clc1ccc(C(NCCNC(c2ccccc2)c2ccc(Cl)cc2)c2ccccc2)cc1 (stereo not shown) ?
A. 233 to 235 °C

Q. Would you kindly share the measured melting point for "Cl.O=C(CNC(c1ccccc1)c1ccccc1)NCc1ccccc1" ?
A. 161.9 to 162.9 °C

Q. Would you kindly share the measured melting point for O=C(NCC(c1ccccc1)c1ccccc1)C(Cc1ccccc1)NCc1ccccn1 (racemic) [Example 136] ?
A. 68 to 70 °C

====

# melting point per entry

> print(dat)
                                   compound    assay.value
1  Cl.O=C(CNC1CCc2ccccc2C1)N(c1ccccc1)c1ccccc1 (centres unmarked)  274 to 295 °C

Q. Would you kindly share the measured melting point for "Cc1cccc2c1N(C(=O)CNC(c1ccccc1)c1ccccc1)CCC2.Cl" ?
A. 128 to 136 °C

Q. Would you kindly share the measured melting point for Cl.O=C(NCc1cccc(Cl)c1)C(NC(c1ccccc1)c1ccccc1)c1ccccc1 (racemic) ?
A. 215 to 216 °C

Q. Would you kindly share the measured melting point for COc1cc(CNC(C(=O)NCc2ccccc2)c2ccccc2)cc(OC)c1 (racemic) [Example 112] ?
A. 107 to 108 °C

Q. Would you kindly share the measured melting point for CC(NC(c1ccccc1)c1ccccc1)C(=O)NCCC(c1ccccc1)c1ccccc1.Cl (racemic) ?
A. 210.3 to 212 °C
